test system: ENR+CD organoids; test: Primary screen: ATP (CellTiter-Glo 3D, CTG) cell number/viability, 2.5-D 384-well ENR+CD organoids; settings: primary screen, dose 2.00 uM, standard z score;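 further: compounds given at plating and again on day 3 over a 6-day differentiation from ENR+CV stem-cell-enriched precursors, ATP measured on day 6, plate median as control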
Each entry below carries its reported Z.CTG.
Number only, please.

Solved entries (count: 4):
> print(dat)
                                   molecule  quantity.kind  test.value
1  C[C@]1(O)C[C@@H](c2nc(-c3ccc4ccc(-c5ccccc5)nc4c3)c3c(N)nccn32)C1 [OSI-906 (Linsitinib)]          Z.CTG      −0.661
2  COc1ccc(C(=O)Nc2sc3c(c2C(N)=O)CCCC3)cc1OC [TCS 359]          Z.CTG       0.119
3  O=C(NNc1ccccc1)c1ccncc1 [PluriSIn #1 (NSC 14613)]          Z.CTG      −1.035
4  NC(=O)c1ccc(-c2nc(-c3ccccn3)c(-c3ccc4c(c3)OCO4)[nH]2)cc1 [SB431542]          Z.CTG       0.754

Exercise: Bench note: what Z.CTG did CC(C)(F)C[C@H](N[C@@H](c1ccc(-c2ccc(S(C)(=O)=O)cc2)cc1)C(F)(F)F)C(=O)NC1(C#N)CC1 [Odanacatib (MK-0822)] show?
Key: −0.020

Exercise: Follow-up entry: CCC(CC)(NC(=O)C(C)C)C(=O)N[C@@H](CCCN=C(N)N)C(=O)NC1(C(=O)NC(c2ccc(F)cc2)c2ccc(F)cc2)CCCC1 [MM-102]
Key: −0.557

Exercise: Follow-up entry: N#CSc1cc(SC#N)c(N)nc1N [PR-619]
Key: 0.053

Exercise: Follow-up entry: COc1c(C)c(C(=O)c2ccc(N)c(C(=O)[O-])c2)n2ccccc12.[Na+] [SSR128129E]
Key: 0.291

Exercise: Follow-up entry: NCC(=O)Nc1ccc(-n2nc(C(F)(F)F)cc2-c2ccc3c(ccc4ccccc43)c2)cc1 [OSU-03012 (AR-12)]
Key: 0.556

Exercise: Follow-up entry: O=C(Nc1ccccc1-c1cn2c(CN3CCNCC3)csc2n1)c1cnc2ccccc2n1 [SRT1720]
Key: 0.810

Exercise: Follow-up entry: Cc1ccc(S(=O)(=O)c2ccc([N+](=O)[O-])o2)cc1 [NSC697923]
Key: −0.241

Exercise: Follow-up entry: Oc1ccc(Nc2nc(-c3ccc(Cl)cc3)cs2)cc1 [SKI II]
Key: 0.473
